Target: T1, soluble human insulin receptor-immunoglobulin heavy chain chimera (sIR-Fc; Bass et al., 1996) (human, UniProt P06213 28-956, limits assumed)
T1 construct: extracellular domain; also called soluble IR (Bass construct); not shown: immunoglobulin heavy chain constant domains
Experiment: phage ELISA
Listed here: items and their measured Ratio over Background.
Returns: the value as a bare number; no unit string appended.

The following binders have reported results that may help.
Incoming: Please look up its Ratio over Background: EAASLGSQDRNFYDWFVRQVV [A6S-2-D11-IR]
Outgoing: 13.5

Incoming: Bench note: what Ratio over Background did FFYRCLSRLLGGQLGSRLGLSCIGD [20C-3-E4-IGFR] show?
Outgoing: 1.3

Incoming: Given the binder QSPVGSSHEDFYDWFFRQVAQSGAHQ [H2CA-3-D6-IGFR] , what is its reported Ratio over Background?
Outgoing: 2.2

Continue with the next binder.
Incoming: // query Ratio over Background value for entry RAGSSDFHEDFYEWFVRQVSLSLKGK [H2CA-2-B9-IGFR]
Outgoing: 1.7
